target-or-test-system: Nucleoprotein (Lymphocytic choriomeningitis virus (strain Armstrong)) (UniProt P09992)
Sequence (P09992 whole entry, looked up): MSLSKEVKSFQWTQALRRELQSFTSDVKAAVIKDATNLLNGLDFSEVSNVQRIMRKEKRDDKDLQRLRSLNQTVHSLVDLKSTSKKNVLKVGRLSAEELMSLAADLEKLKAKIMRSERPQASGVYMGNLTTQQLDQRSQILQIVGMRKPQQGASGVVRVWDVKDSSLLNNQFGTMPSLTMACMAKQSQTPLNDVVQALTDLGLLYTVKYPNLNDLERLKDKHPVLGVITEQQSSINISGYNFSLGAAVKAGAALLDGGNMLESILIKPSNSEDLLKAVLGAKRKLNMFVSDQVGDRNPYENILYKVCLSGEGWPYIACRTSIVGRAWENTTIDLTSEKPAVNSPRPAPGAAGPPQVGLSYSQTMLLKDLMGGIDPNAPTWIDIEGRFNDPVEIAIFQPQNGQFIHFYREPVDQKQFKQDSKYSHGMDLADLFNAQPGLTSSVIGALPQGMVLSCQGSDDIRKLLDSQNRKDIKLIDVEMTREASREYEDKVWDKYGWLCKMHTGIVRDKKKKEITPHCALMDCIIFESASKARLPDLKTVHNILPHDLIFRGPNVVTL
test-name: qHTS for Inhibitors of the Functional Ribonucleoprotein Complex (vRNP) of Lymphocytic Choriomeningitis Arenaviruses (LCMV): LCMV Primary Screen - GLuc reporter signal (AID 1347086); note: nearly all actives have a fitted effect of over 70% in size
experimental-parameters: LCMV minigenome vRNP cell assay, Gaussia luciferase reporter; series mostly up to 57.5 µM
Results filed as inconclusive are left out. Activity calls are given as the source filed them. Calls come from the whole dose curve.
Classes used: active, inactive

compound	class-label
CC(C)(C)NC[C@H](O)c1ccc(O)cc1Cl	inactive
Nc1ccc(Sc2ccc(N)cc2)cc1	inactive
c1ccc(CCCN2CCN(CCOC(c3ccccc3)c3ccccc3)CC2)cc1	inactive
COC(C)(C)CCCC(C)C/C=C/C(C)=C/C(=O)OC(C)C (stereo unspecified)	inactive
Cc1ccccc1C(C(=O)NC1CCCC1)N(C(=O)Cn1cnc2ccccc21)c1cccc(F)c1 (stereo unspecified)	inactive
CC(Cc1ccc(O)cc1)NCC(O)c1cc(O)cc(O)c1 (stereo unspecified)	inactive
CC(C)(C)COc1ccc(-n2cc(C(=O)O)cn2)cc1C#N	inactive
Cc1ccc(-c2ncn(-c3ccc(Nc4nccc(-c5cccc(N6CCOCC6)c5)n4)cc3)n2)cn1	inactive
C=C[C@@H]1CN2CCC1C[C@@H]2[C@@H](O)c1ccnc2ccccc12 (stereo partly specified)	active
NC1=NC(=O)N2CC12 (stereo unspecified)	inactive
CN1[C@@H]2CC[C@H]1CC(OC(=O)C(O)c1ccccc1)C2 (stereo partly specified)	inactive

* * *

test-name: High-throughput drug toxicity screening in the BPDCN cell line Cal-1 (AID 1224825);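 note: cells exposed to compounds for 48 h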
experimental-parameters: Cal-1 BPDCN cell viability, qHTS; at 45.8 µM (top of the series)
Please use Criterion met for viability (% of control) under 10% and Criterion not met for everything else, ties included.

molecule	class-label
O=C(Oc1ccc([N+](=O)[O-])cc1)N1CCC(C(O)(c2ccc3c(c2)OCO3)c2ccc3c(c2)OCO3)CC1	Criterion not met
CC(C)(C)c1cc(C=C(C#N)C#N)cc(Br)c1O	Criterion not met
CCCN1CCO[C@@H]2c3cc(O)ccc3OC[C@@H]21	Criterion not met
CC(O)=C(C#N)C(=O)Nc1cc(Br)ccc1Br	Criterion not met
CC[C@H]1C=CC=CC[C@@H](C)[C@H](O)[C@@](C)(O)C(=O)[C@@H](C)[C@H](O)[C@@H](C)C(=O)[C@@H](C)[C@H](O)[C@@H](C)C=CC(=O)O[C@@H]2[C@@H](C)[C@H](CC1)O[C@]1(CC[C@H](C)[C@H](C[C@@H](C)O)O1)[C@H]2C	Criterion met
C[C@@H]1CC[C@@]2(OC1)O[C@H]1C[C@H]3[C@@H]4CC=C5C[C@@H](O[C@@H]6O[C@H](CO)[C@@H](O[C@@H]7O[C@@H](C)[C@H](O)[C@@H](O)[C@@H]7O)[C@H](O)[C@@H]6O[C@@H]6O[C@@H](C)[C@H](O)[C@@H](O)[C@@H]6O)CC[C@]5(C)[C@@H]4CC[C@]3(C)[C@@H]1[C@H]2C	Criterion not met
C[C@]12CC[C@H](O)CC1=CC[C@H]1[C@H]3CCC(=O)[C@@]3(C)CC[C@@H]12	Criterion not met
O=S(=O)(CC1CS1)c1ccc(Oc2ccccc2)cc1 (centres undefined)	Criterion met
Cc1nc(-c2ccc(-c3ccc(C(=O)N4CCc5cc6c(cc54)C4(CCN(C)CC4)CO6)cc3)c(C)c2)no1	Criterion not met
CO[C@H]1CCC(O[C@H]2C[C@H]([C@]3(C)CC[C@]4(C[C@H](O)[C@@H](C)[C@@H]([C@@H](C)C=C(C)C(=O)[C@H](C)C[C@H](C)C(=O)O)O4)O3)O[C@]3(O[C@@H]([C@H]4O[C@@](O)(CO)[C@H](C)C[C@H]4C)C[C@H]3C)[C@H]2C)O[C@H]1C (some centres undefined)	Criterion not met
COc1ccc2c(c[n+](C)c3c4cc5c(cc4ccc23)OCO5)c1OC	Criterion met
C[C@]12CC[C@H]3[C@@H](CCC4=CC(=O)CC[C@@]43C)[C@H]1CC[C@H]2OC(=O)CCC1CCCC1	Criterion not met
CC(C)N(CCNC(=O)CN1CCCC1=O)C(C)C	Criterion not met
COC[C@H]1OC(=O)c2coc3c2[C@@]1(C)C1=C(C3=O)[C@@H]2CC[C@H](O)[C@@]2(C)C[C@@H]1OC(C)=O	Criterion met
